Source of measurements: patent US20210238260

target: Factor X (FX), P00742
Sequence (P00742 whole entry, looked up): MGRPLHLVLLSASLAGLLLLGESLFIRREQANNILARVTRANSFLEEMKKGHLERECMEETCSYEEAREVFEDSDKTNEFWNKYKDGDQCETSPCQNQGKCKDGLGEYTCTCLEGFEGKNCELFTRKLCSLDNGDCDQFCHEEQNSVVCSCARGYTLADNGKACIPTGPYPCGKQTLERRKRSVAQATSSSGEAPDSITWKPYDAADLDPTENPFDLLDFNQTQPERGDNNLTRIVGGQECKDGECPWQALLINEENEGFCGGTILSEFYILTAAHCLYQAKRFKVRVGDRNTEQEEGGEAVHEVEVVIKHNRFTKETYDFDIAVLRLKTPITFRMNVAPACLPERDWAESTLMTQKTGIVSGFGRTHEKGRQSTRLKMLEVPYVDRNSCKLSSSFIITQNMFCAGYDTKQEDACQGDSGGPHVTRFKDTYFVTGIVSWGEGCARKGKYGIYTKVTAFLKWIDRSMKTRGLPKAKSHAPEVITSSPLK
REPORTED METRIC: KM (µM)
# value in µM; strip the unit string

FIXa A103N/N105S/R318Y/R338E/R403E/E410N (protein) chain 1: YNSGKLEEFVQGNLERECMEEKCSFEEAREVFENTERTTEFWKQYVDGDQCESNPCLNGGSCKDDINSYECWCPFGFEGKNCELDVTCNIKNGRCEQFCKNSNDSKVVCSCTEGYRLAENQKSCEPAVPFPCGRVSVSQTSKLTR chain 2: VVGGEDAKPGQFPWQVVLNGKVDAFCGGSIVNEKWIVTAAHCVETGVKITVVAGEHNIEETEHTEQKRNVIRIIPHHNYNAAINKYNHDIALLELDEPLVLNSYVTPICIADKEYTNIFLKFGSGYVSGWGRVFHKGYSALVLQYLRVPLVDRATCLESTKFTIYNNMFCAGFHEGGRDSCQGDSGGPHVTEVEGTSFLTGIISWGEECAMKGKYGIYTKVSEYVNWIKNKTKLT
0.0447

Next:
Query :: I'd like to know its KM. The protein in question is FIXa-Y155F/K247N/N249S/R318Y/T343R (protein) chain 1: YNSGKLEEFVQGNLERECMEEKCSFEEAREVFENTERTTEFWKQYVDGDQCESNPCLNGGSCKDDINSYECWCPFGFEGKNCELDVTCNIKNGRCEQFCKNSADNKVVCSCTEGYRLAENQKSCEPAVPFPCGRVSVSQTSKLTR chain 2: VVGGEDAKPGQFPWQVVLNGKVDAFCGGSIVNEKWIVTAAHCVETGVKITVVAGEHNIEETEHTEQNRSVIRIIPHHNYNAAINKYNHDIALLELDEPLVLNSYVTPICIADKEYTNIFLKFGSGYVSGWGRVFHKGYSALVLQYLRVPLVDRATCLRSTKFRIYNNMFCAGFHEGGRDSCQGDSGGPHVTEVEGTSFLTGIISWGEECAMKGKYGIYTKVSRYVNWIKEKTKLT
Result :: 0.0421
